System Tested: Sigma intracellular receptor 2 (Homo sapiens) (UniProt Q5BJF2)
Sequence (Q5BJF2 whole entry): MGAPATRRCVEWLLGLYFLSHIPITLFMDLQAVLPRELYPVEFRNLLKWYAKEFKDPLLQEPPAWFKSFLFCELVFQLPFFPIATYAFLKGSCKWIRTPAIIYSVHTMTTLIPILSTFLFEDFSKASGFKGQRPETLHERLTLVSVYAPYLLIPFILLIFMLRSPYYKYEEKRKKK
Measurement Context: Compound concentration 10 µM; call rule not given here
Possible outcomes: active, inactive

# Molecule, Label Value
rows = [
    ("c1cc(CN2CCCNCCNCCCNCC2)ccc1CN1CCCNCCNCCCNCC1", "inactive"),
    ("CNC[C@H](O)c1ccc(O)c(O)c1", "inactive"),
    ("C[C@H](Cc1cc2c(c(C(N)=O)c1)N(CCCO)CC2)NCCOc1ccccc1OCC(F)(F)F", "inactive"),
    ("C[N+]1(C)[C@@H]2C[C@@H](OC(=O)C(O)(c3cccs3)c3cccs3)C[C@H]1[C@@H]1O[C@@H]12", "active"),
    ("CCCCCNC(=N)N/N=C/c1c[nH]c2ccc(OC)cc12", "active"),
    ("O=S1(=O)c2cccc3cccc(c23)N1CCCN1CCN(c2ccc(F)cc2)CC1", "active"),
]

====

System Tested: D(1A) dopamine receptor (Homo sapiens) (UniProt P21728)
Sequence (P21728 whole entry): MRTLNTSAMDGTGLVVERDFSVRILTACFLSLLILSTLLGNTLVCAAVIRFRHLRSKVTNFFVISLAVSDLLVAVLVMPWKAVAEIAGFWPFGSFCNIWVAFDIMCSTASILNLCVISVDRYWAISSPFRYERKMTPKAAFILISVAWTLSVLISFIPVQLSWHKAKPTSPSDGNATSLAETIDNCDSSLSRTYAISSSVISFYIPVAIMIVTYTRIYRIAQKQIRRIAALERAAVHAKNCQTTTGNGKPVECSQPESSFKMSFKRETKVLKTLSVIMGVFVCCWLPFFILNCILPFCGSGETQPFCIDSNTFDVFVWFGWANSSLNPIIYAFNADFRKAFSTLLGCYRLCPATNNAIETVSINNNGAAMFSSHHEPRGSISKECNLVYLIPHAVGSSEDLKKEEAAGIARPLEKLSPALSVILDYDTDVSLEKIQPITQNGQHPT
Measurement Context: Compound concentration 10 µM
Description: PDSP Primary Binding target: DRD1 - Compounds are tested at 10 uM concentration, plate are incubated at room temperature in the dark for 90 minutes. Reaction are stopped by vacuum filtration onto 0.3% polyethyleneimine soaked filter mats using Filtermate harvester. Scintilation cocktail is then melted onto microwave-dried filters on a hot plate and the radio activity is counted in Microbia counter.
Reported values of inhibition for individual entries

# Molecule, inhibition (%)
records = [
    ("O=S1(=O)c2cccc3cccc(c23)N1CCCN1CCN(c2ccc(F)cc2)CC1", 59.8),
    ("COc1ccc(S(=O)(=O)c2cc(OC)ccc2S(=O)(=O)c2ccc([C@H](C)NS(C)(=O)=O)cc2)cc1", 0.39),
    ("N#Cc1c[nH]c2c(C(=O)N3CCN(CCc4ccc(F)cc4)CC3)cccc12", 27.9),
    ("Cc1nnn(-c2ccc(-c3ccc(C4(C(=O)O)CC4)cc3)cc2)c1NC(=O)O[C@H](C)c1ccccc1", -4.64),
    ("CCCCCCCCCCCCC/C=C/[C@@H](O)[C@@H](N)COP(=O)(O)O", 2.88),
    ("O=C(O)c1cc(-c2ccc(C3CCNCC3)cc2)c2ccc(-c3ccc(C(F)(F)F)cc3)cc2c1", 27),
    ("NC[C@@H]1O[C@H](C23CC4CC(CC(C4)C2)C3)Cc2c1ccc(O)c2O", 100),
    ("CN1CCC(=C2c3ccccc3CC(=O)c3sccc32)CC1", 82.8),
    ("COc1ccc(Br)cc1S(=O)(=O)NC(=O)/C=C/c1ccccc1Cc1ccc2ccccc2c1", -4.59),
]

====

System Tested: Translocator protein (Homo sapiens) (UniProt P30536)
Sequence (P30536 whole entry): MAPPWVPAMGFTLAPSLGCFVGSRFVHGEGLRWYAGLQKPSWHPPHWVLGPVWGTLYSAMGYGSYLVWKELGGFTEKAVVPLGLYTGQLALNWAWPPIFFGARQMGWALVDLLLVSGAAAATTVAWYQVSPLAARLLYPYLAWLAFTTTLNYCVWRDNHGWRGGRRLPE
Measurement Context: Compound concentration 10 µM
Description: PDSP Primary Binding target: TSPO - Compounds are tested at 10 uM concentration, plate are incubated at room temperature in the dark for 90 minutes. Reaction are stopped by vacuum filtration onto 0.3% polyethyleneimine soaked filter mats using Filtermate harvester. Scintilation cocktail is then melted onto microwave-dried filters on a hot plate and the radio activity is counted in Microbia counter.

# Compound, inhibition [%]
records = [
    ("NC(=O)[C@@H]1CCCN1C(=O)[C@H](Cc1c[nH]cn1)NC(=O)[C@@H]1CCC(=O)N1", 73.2),
    ("CCCCCNC(=N)N/N=C/c1c[nH]c2ccc(OC)cc12", 47.4),
    ("Cc1cccc([C@H](C)c2c[nH]cn2)c1C", -0.25),
    ("CNC[C@H](O)c1ccc(O)c(O)c1", -0.39),
    ("Cc1nc(-c2ccc(C(F)(F)F)cc2)sc1COc1ccc([C@H](CC(=O)O)c2ccon2)cc1", 11.6),
    ("N#Cc1c(N)nc(SCC(N)=O)c(C#N)c1-c1ccc(OCC2CC2)cc1", 39),
    ("CN1C2CCC1CC(OC(c1ccc(F)cc1)c1ccc(F)cc1)C2 (stereo not given)", 47.8),
    ("O=C(O)c1cc(-c2ccc(C3CCNCC3)cc2)c2ccc(-c3ccc(C(F)(F)F)cc3)cc2c1", 21.7),
    ("S=C(NCCCc1c[nH]cn1)NCCCN(Cc1ccc(Cl)c(Cl)c1)c1ccc(Br)cn1", 30.9),
    ("CCC(=O)NCC[C@@H]1CCc2ccc3c(c21)CCO3", 27.6),
]

====

System Tested: Histamine H2 receptor (Homo sapiens) (UniProt P25021)
Sequence (P25021 whole entry): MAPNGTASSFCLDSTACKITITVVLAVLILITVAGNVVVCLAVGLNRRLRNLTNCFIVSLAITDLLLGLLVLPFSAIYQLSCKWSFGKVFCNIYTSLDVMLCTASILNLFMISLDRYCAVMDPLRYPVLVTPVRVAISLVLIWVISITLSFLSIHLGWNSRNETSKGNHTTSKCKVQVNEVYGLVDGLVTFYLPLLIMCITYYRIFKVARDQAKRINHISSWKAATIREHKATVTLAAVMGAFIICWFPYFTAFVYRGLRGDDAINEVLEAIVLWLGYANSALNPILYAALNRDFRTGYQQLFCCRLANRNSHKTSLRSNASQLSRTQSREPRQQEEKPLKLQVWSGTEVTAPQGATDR
Measurement Context: Compound concentration 10 µM
Description: PDSP Primary Binding target: HRH2 - Compounds are tested at 10 uM concentration, plate are incubated at room temperature in the dark for 90 minutes. Reaction are stopped by vacuum filtration onto 0.3% polyethyleneimine soaked filter mats using Filtermate harvester. Scintilation cocktail is then melted onto microwave-dried filters on a hot plate and the radio activity is counted in Microbia counter.
Observation Type: inhibition (%)

# Molecule, System Tested, Result
data = [
    ("O=c1ccn([C@@H]2O[C@H](COP(=O)(O)OP(=O)(O)O)[C@@H](O)[C@H]2O)c(=O)[nH]1", "Histamine H2 receptor (Homo sapiens) (UniProt P25021)", -7.58),
    ("COc1ccc(OC(F)(F)F)cc1CN[C@H]1CCCN[C@H]1c1ccccc1", "Histamine H2 receptor (Homo sapiens) (UniProt P25021)", 42.3),
    ("COc1ccc(Br)cc1S(=O)(=O)NC(=O)/C=C/c1ccccc1Cc1ccc2ccccc2c1", "Histamine H2 receptor (Homo sapiens) (UniProt P25021)", 16),
    ("COc1ccc(S(=O)(=O)N2c3ccc(Cl)cc3[C@](O)(c3ccccc3Cl)[C@@H]2C(=O)N2CCC[C@H]2C(N)=O)cc1OC", "Histamine H2 receptor (Homo sapiens) (UniProt P25021)", 15.4),
]

====

Reported values of inhibition for individual entries
System Tested: Alpha-1B adrenergic receptor (Homo sapiens)
Measurement Context: Compound concentration 10 µM
Description: PDSP Primary Binding target: ADRA1B - Compounds are tested at 10 uM concentration, plate are incubated at room temperature in the dark for 90 minutes. Reaction are stopped by vacuum filtration onto 0.3% polyethyleneimine soaked filter mats using Filtermate harvester. Scintilation cocktail is then melted onto microwave-dried filters on a hot plate and the radio activity is counted in Microbia counter.
Observation Type: inhibition (%)

# Molecule, Observation Type, Result
records = [
    ("O=C1O[C@]2(CC[C@H](C(=O)Nc3ccn(-c4ccccc4F)n3)CC2)c2cnccc21", "inhibition", 3.66),
    ("O=C(O)CC/C=C\\C[C@@H]1CO[C@H](c2ccccc2Cl)O[C@@H]1c1ccccc1O", "inhibition", -9.67),
    ("COc1ccc(S(=O)(=O)N2c3ccc(Cl)cc3[C@](O)(c3ccccc3Cl)[C@@H]2C(=O)N2CCC[C@H]2C(N)=O)cc1OC", "inhibition", 2.62),
    ("Nc1nc2c(c(N3CCNCC3)n1)CCC1=C2[C@@H]2CCCC[C@@H]2O1", "inhibition", -8.32),
]

====

System Tested: Muscarinic acetylcholine receptor M3 (Homo sapiens)
Measurement Context: Compound concentration 10 µM
Description: PDSP Primary Binding target: CHRM3 - Compounds are tested at 10 uM concentration, plate are incubated at room temperature in the dark for 90 minutes. Reaction are stopped by vacuum filtration onto 0.3% polyethyleneimine soaked filter mats using Filtermate harvester. Scintilation cocktail is then melted onto microwave-dried filters on a hot plate and the radio activity is counted in Microbia counter.
Reported values of inhibition for individual entries
Observation Type: inhibition (%)

# Molecule, System Tested, Observation Type, Result
measured = [
    ("N#Cc1c(O)nc(SCc2cccc(F)c2F)nc1C1CC1", "Muscarinic acetylcholine receptor M3 (Homo sapiens)", "inhibition", 5.27),
    ("CCc1nn(CCCN2CCN(c3cccc(Cl)c3)CC2)c(=O)n1CCOc1ccccc1", "Muscarinic acetylcholine receptor M3 (Homo sapiens)", "inhibition", 0.27),
    ("CC(C)Oc1ccccc1C(=O)Nc1ccccc1C(=O)Nc1cccc(S(=O)(=O)C(F)(F)F)c1", "Muscarinic acetylcholine receptor M3 (Homo sapiens)", "inhibition", 13.1),
    ("COc1cc(-n2cnc3cc(-c4ccc(Cl)cc4)sc3c2=O)ccc1OCCN1CCCC1", "Muscarinic acetylcholine receptor M3 (Homo sapiens)", "inhibition", 56.6),
    ("O=C(O)COc1cccc(CN(Cc2ccc(-n3cccn3)cc2)S(=O)(=O)c2cccnc2)c1", "Muscarinic acetylcholine receptor M3 (Homo sapiens)", "inhibition", 7.64),
    ("Cc1ccc(O)c([C@H](CCN(C(C)C)C(C)C)c2ccccc2)c1", "Muscarinic acetylcholine receptor M3 (Homo sapiens)", "inhibition", 99.8),
    ("Cc1cc(C)c(N)c(C#Cc2cccc(F)c2)n1", "Muscarinic acetylcholine receptor M3 (Homo sapiens)", "inhibition", -6.32),
    ("COc1ccc(NS(=O)(=O)c2sc3ccc(Cl)cc3c2C)cc1N1CCNCC1", "Muscarinic acetylcholine receptor M3 (Homo sapiens)", "inhibition", 3.19),
    ("O=c1ccn([C@@H]2O[C@H](COP(=O)(O)OP(=O)(O)O)[C@@H](O)[C@H]2O)c(=O)[nH]1", "Muscarinic acetylcholine receptor M3 (Homo sapiens)", "inhibition", 2.51),
    ("C[C@@H](NCCCc1cccc(C(F)(F)F)c1)c1cccc2ccccc12", "Muscarinic acetylcholine receptor M3 (Homo sapiens)", "inhibition", 25.8),
]

====

System Tested: Muscarinic acetylcholine receptor M1 (Homo sapiens)
Sequence (whole entry): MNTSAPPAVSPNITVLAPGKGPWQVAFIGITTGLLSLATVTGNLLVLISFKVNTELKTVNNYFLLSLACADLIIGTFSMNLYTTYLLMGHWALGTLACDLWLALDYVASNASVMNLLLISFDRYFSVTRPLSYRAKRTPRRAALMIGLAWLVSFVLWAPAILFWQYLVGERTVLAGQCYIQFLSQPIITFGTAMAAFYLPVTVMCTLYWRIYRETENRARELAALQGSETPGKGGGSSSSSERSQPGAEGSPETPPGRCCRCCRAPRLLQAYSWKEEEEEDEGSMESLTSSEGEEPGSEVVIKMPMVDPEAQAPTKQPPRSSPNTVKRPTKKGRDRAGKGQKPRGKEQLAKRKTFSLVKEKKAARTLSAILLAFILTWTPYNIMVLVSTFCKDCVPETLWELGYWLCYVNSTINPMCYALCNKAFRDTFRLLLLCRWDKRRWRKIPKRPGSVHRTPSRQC
Measurement Context: Compound concentration 10 µM
Description: PDSP Primary Binding target: CHRM1 - Compounds are tested at 10 uM concentration, plate are incubated at room temperature in the dark for 90 minutes. Reaction are stopped by vacuum filtration onto 0.3% polyethyleneimine soaked filter mats using Filtermate harvester. Scintilation cocktail is then melted onto microwave-dried filters on a hot plate and the radio activity is counted in Microbia counter.
Reported values of inhibition for individual entries

# Molecule, inhibition, %
measured = [
    ("COc1cc2c(CCNC(C)=O)c[nH]c2cc1Cl", -4.88),
    ("CN1CCC(C(=O)c2cccc(NC(=O)c3c(F)cc(F)cc3F)n2)CC1", 43.1),
    ("Cc1csc(NC(=O)c2cc(F)cc(Oc3cncnc3)c2)n1", -0.94),
    ("CN1C(=O)[C@@H](NC(=O)c2cc3ccccc3[nH]2)N=C(c2ccccc2)c2ccccc21", 5.19),
    ("CNc1nc(NCc2ccc(NS(C)(=O)=O)cc2Cl)cc(-c2ccccn2)n1", 9.22),
    ("COC1CCN(c2cccc(-c3cc(NC(C)=O)nc(-n4nc(C)cc4C)n3)n2)CC1", 1.9),
    ("O=C1O[C@]2(CC[C@H](C(=O)Nc3ccn(-c4ccccc4F)n3)CC2)c2cnccc21", -6),
    ("COc1ccc(S(=O)(=O)c2cc(OC)ccc2S(=O)(=O)c2ccc([C@H](C)NS(C)(=O)=O)cc2)cc1", -2.24),
    ("O=C(O)COc1cccc(CN(Cc2ccc(-n3cccn3)cc2)S(=O)(=O)c2cccnc2)c1", 3.45),
    ("Cc1c(C2=CCN(C(=O)N(C)C(C)C)CC2)nnn1-c1cccnc1F", 2.87),
]
